B1: WEE1 (parent)
chain: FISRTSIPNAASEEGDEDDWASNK

Variants of: B1
experiment-summary: protein stability index of a GFP-peptide fusion (GPS, HEK-293T) (PSI 1-6); higher = more stable;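 also: lentivirally expressed fusions sorted by FACS into six bins by GFP to DsRed ratio, PSI derived from sequencing read proportions per bin multiplied by bin number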
settings: c terminus: a fixed tail appended
Each entry below carries its reported protein stability index.
Just the number, please, no unit after it.

For orientation, consider the following solved cases.
RISRTSIPNAASEEGDEDDWASNK ... 4.92
FISRTSIPNAASEEGGEDDWASNK ... 3.76
YISRTSIPNAASEEGDEDDWASNK ... 4.39
FISRTSIPNAASEEGDEDDWADNK ... 4.51
FMSRTSIPNAASEEGDEDDWASNK ... 4.84
FISRTSIPNAASAEGDEDDWASNK ... 3.85
FISFTSIPNAASEEGDEDDWASNK ... 3.15
FISRTSIPVAASEEGDEDDWASNK ... 3.93

**Query** Supply protein stability index value. Item: "FISRTSIPNAASEEGDHDDWASNK"
**Result** 4.05

**Query** Supply protein stability index value. Item: "FISRTSIPNAASEEGTEDDWASNK"
**Result** 3.49

**Query** Supply protein stability index value. Item: "FISRTSIPNAASEEGMEDDWASNK"
**Result** 3.61

**Query** Supply protein stability index value. Item: "FLSRTSIPNAASEEGDEDDWASNK"
**Result** 5.06

**Query** Supply protein stability index value. Item: "FISRTKIPNAASEEGDEDDWASNK"
**Result** 4.27

**Query** Supply protein stability index value. Item: "FISRTSGPNAASEEGDEDDWASNK"
**Result** 4.84

**Query** Supply protein stability index value. Item: "FISRPSIPNAASEEGDEDDWASNK"
**Result** 4

**Query** Supply protein stability index value. Item: "FISRTSIPNAASEEGDEDDWAHNK"
**Result** 3.92

**Query** Supply protein stability index value. Item: "FISRTSIPNAASEEKDEDDWASNK"
**Result** 4.18

**Query** Supply protein stability index value. Item: "FISRTSIPNAASEEHDEDDWASNK"
**Result** 3.91

**Query** Supply protein stability index value. Item: "FCSRTSIPNAASEEGDEDDWASNK"
**Result** 3.34

**Query** Supply protein stability index value. Item: "FISRTSIPNAASEEGDEDDMASNK"
**Result** 4.44

**Query** Supply protein stability index value. Item: "FISRTSIPNAASEELDEDDWASNK"
**Result** 3.74

**Query** Supply protein stability index value. Item: "FISRTAIPNAASEEGDEDDWASNK"
**Result** 3.98

**Query** Supply protein stability index value. Item: "FISRTSIPNAASEEGDEDDHASNK"
**Result** 4.44

**Query** Supply protein stability index value. Item: "FISRMSIPNAASEEGDEDDWASNK"
**Result** 3.3

**Query** Supply protein stability index value. Item: "FISRTSIPNAAHEEGDEDDWASNK"
**Result** 3.93

**Query** Supply protein stability index value. Item: "FNSRTSIPNAASEEGDEDDWASNK"
**Result** 5.67

**Query** Supply protein stability index value. Item: "FISRTSIPNAASEEGDEDMWASNK"
**Result** 3.06

**Query** Supply protein stability index value. Item: "FISRTSIPNAALEEGDEDDWASNK"
**Result** 4.03

**Query** Supply protein stability index value. Item: "FISRTSIPNAASEEGDEWDWASNK"
**Result** 2.54

**Query** Supply protein stability index value. Item: "VISRTSIPNAASEEGDEDDWASNK"
**Result** 5.41

**Query** Supply protein stability index value. Item: "FISRDSIPNAASEEGDEDDWASNK"
**Result** 4.2
